// INHIBITION lookup, one value per entry
# Test system: Plasmodium falciparum
# experimental details: Screen against P. falciparum Asexual Blood Stage (ABS), at 5uM
# Assay type: functional, Dd2
# conditions used: tested at 5 uM
The campaign covered roughly 65,000 compounds. About 2,100 (3.2%) showed an effect of 50% or more. The median lay at about -52%. The full list was thinned out, with strong results kept by preference.
All answers are understood in %, so give the number only.

CC(Cn1cncn1)NCc1n[nH]c2c1CCCCC2 (stereo not drawn) = -49.3
COc1cc(CNC(C)Cn2cccn2)cc(OC)c1 (stereo not drawn) = -72.2
Cc1cnc(N2CCC3(CCCCN3C)C2)nc1 (stereo not drawn) = -23.5
O=C(Cc1cnc(-c2c(Cl)cccc2Cl)s1)N1CCC2(CC1)OCCO2 = -87.1
COc1ccc(CN2C[C@@H]3COC[C@@H](N4CCN(C)CC4)[C@@H]3C2)cc1 = 73.9
CC(C)(C)n1cc(C(=O)O)c(-c2ccc(F)cc2F)n1 = -86.4
CN(C)[C@@H]1CN(Cc2cccnc2)C[C@H]1c1cn(C)c2ccccc12 = 71.9
O=C(Nc1ccccc1)C1=NOC2(CCCNC2)C1 (stereo not drawn) = -22.7
COc1c(C)cnc(CN(C)C2CCCCC2)c1C = 76.7
c1cc(CN2CCO[C@H]3[C@H](OCC4CCCC4)CC[C@@H]32)ccn1 = -71.1

query: Please state recorded INHIBITION (tested on Plasmodium falciparum) of Cc1c(C2SCC(=O)Nc3c2c(O)nn3C2CCCC2)cnn1C (stereo not drawn)
result: -70.4

query: Item: `O=C1C[C@@H]2[C@H](CCN2Cc2ccccn2)N1Cc1ccncc1` Test system: Plasmodium falciparum Read-out: INHIBITION Value: ?
result: 19.2

query: Please tell me: INHIBITION of CN1CCCC(c2cncc(C(=O)NCc3ccccc3Cl)n2)C1 (stereo not drawn) , system Plasmodium falciparum?
result: 72.4

query: Item: `c1ccc(CO[C@@H]2CN(Cc3cccnc3)[C@@H]3COC[C@@H]32)nc1` Test system: Plasmodium falciparum Read-out: INHIBITION Value: ?
result: -165

query: For the record `COc1nc(N2CCNCC2)ncc1Br` , what value of INHIBITION is listed for Plasmodium falciparum?
result: 23.8

query: What is its INHIBITION for Plasmodium falciparum? Entry: CC(C)CNC(=O)C1(Cc2ccccc2-c2cccs2)CCNC1 (stereo not drawn)
result: 71.7

query: Which INHIBITION is reported with Plasmodium falciparum for this entry: `CCCN(CC)c1cc(C2CCNCC2)nc(C)n1` ?
result: -70.1

query: // lookup INHIBITION | system=Plasmodium falciparum | key= `COCCN1CCN(Cc2ccoc2)Cc2cccnc21`
result: 21

query: Give INHIBITION (Plasmodium falciparum) of the following compound: `O=C(NCC1CC1)[C@@H]1C[C@@H]2OCCN[C@@H]2C1`
result: -55.3

query: Request - read-out INHIBITION | tested on Plasmodium falciparum | compound `c1cc(CN2CC[C@H]3C[C@H](c4nc(C5CC5)cs4)O[C@@H]3C2)ccn1`
result: -49.9

* * *

INHIBITION by entry:
# Test system: Plasmodium falciparum
# experimental details: Screen against P. falciparum Asexual Blood Stage (ABS), at 5uM
# Assay type: functional, Dd2
# conditions used: tested at 5 uM
Among all 65,000 compounds or so, about 2,100 (3.2%) showed an effect of 50% or more. The median lay at about -52%. This is one part of a sample in which strong results are shown more often than they occur.
Reply with just the number (in %).

Cc1nc2c(c(NC3CCN(Cc4ccccc4)CC3)n1)CCNCC2 = 78.7
CCCc1nnc2sc(C3CCN(CC)CC3)nn12 = -55.6
COc1ccc(CN2C[C@H]3CCC[C@@H](CN(C)C)[C@H]3C2)cn1 = 50
COCCN1C[C@@H]2CC[C@H]1CN(Cc1ccc3ccccc3n1)C2 = 21.2
O=C(C[C@@H]1COC[C@H]2CN(Cc3cccnc3)C[C@@H]12)N1CCCC1 = -133
Cc1nc(C)c(C)c(N2CCC3(CCN(C)C3)C2)n1 (stereo not given) = 19.5

query: Entry `Cc1nc(C(=O)N[C@H]2COC[C@@H]2N2CCCCC2)cs1` has what INHIBITION?
result: -260

query: Suppose we examine the compound `O=C(C[C@@H]1COC[C@H]2CN(C3CCC3)C[C@@H]12)NCc1cccnc1` ; what INHIBITION value has been reported?
result: -138

query: Fill in: INHIBITION of `Cc1sc2nc(CCN)nc(N3CC(N4CCCCC4)C3)c2c1C` is ___
result: 81.6

query: Name the recorded INHIBITION for `CC(C)NC(=O)[C@H]1C[C@@H]2[C@@H](C1)OCCN2Cc1ccncc1` .
result: -82

* * *

# System: Plasmodium falciparum
# experimental details: Screen against P. falciparum Asexual Blood Stage (ABS), at 5uM
# Type: functional, Dd2
# conditions used: tested at 5 uM
Out of some 65,000 compounds screened, about 2,100 (3.2%) showed an effect of 50% or more. The median lay at about -52%. For the sample, strong results were picked, then their nearest neighbours and some compounds at random.
measurement name: INHIBITION (%)
Report the value in % with no unit label.

A selection of reference data follows.
CN(C)CCN1C(=O)CCCC12CCCN(Cc1cccs1)C2 (stereo not given) = 73.5
O=C1[C@H]2CN(C3CCOCC3)C[C@H]2CN1Cc1cccnc1 = -28.2
CO[C@H]1CN(C(C)C)C[C@@H]1NC(=O)Nc1ccc(C(F)(F)F)cc1 = 71.5
CC[C@H]1CN2CC[C@H]1C[C@@H]2CNC(=O)Nc1ccccc1 = -65.9
CNC(=O)CN1C(=O)CCC12CCCN(Cc1ccccn1)C2 (stereo not given) = -14.2
CN(C(=O)c1ccon1)[C@@H]1CCC[C@@H](Oc2ccccc2)[C@@H]1O = 79.8
COCC(=O)NC[C@H]1C[C@@H]2CCN1C[C@@H]2CN(C)c1ccccc1 = -64.8
Cc1nc[nH]c1CN(Cc1ccccc1)Cc1nccs1 = 75.7
CCN1CCNC(=O)C12CCN(C(=O)Cc1ccccn1)CC2 = -95
CNC(=O)[C@H]1C[C@@H]2CN(C(=O)c3ccc(C)nc3)C[C@@H]2N1C = -35.1

query: Reported INHIBITION for `CN1CCC2(CC1)CNC(=O)c1ccccc1O2` : what is it?
result: -102

query: Requested field: INHIBITION. Item: `CO[C@H]1CCN(C2CCOCC2)C[C@@H]1Cc1ccccc1`
result: 78.7

* * *

# Tested on: Plasmodium falciparum
# experimental details: Screen against P. falciparum Asexual Blood Stage (ABS), at 5uM
# Type: functional, Dd2
# conditions used: tested at 5 uM
Hit rate of the full screen: of about 65,000 compounds, about 2,100 (3.2%) showed an effect of 50% or more. The median lay at about -52%. Many of the other results were omitted from the sample, so strong results are more common in it than they were.
measurement name: INHIBITION (%)
Record the value in %, omitting the unit from your answer.

// known answers, use as guide
CC(C)NC(=O)N1CCOC2(CCNCC2)C1 = 16.9
COCCn1ccnc1CN(Cc1ccccn1)Cc1sccc1C = 92.9
CN(C)[C@@H]1CN(C(=O)Cc2ccccc2)[C@@H]2CCCO[C@H]12 = -9.86
Cc1noc([C@@H]2C[C@H]3CN(Cc4cc(C)on4)C[C@H]3O2)n1 = -92.2
Cc1ncsc1CN1C[C@H](OCc2ccncc2)[C@H]2OCCC[C@H]21 = -47.7

query: Notebook entry, Plasmodium falciparum assay: INHIBITION of `CCCS(=O)(=O)N1CCc2c(COCC)cncc2C1` = ?
result: -24.8

query: Request: INHIBITION, test system Plasmodium falciparum, entry Cc1ccc(CN2Cc3nnn(C)c3C(COCCN(C)C)C2)s1 (centres undefined)
result: 73.9

* * *

The following molecules are shown together with reported INHIBITION values.
# System: Plasmodium falciparum
# experimental details: Screen against P. falciparum Asexual Blood Stage (ABS), at 5uM
# Format: functional, Dd2
# conditions used: tested at 5 uM
The campaign covered roughly 65,000 compounds. About 2,100 (3.2%) showed an effect of 50% or more. The median lay at about -52%. The full list was thinned out, with strong results kept by preference.

Please review the following examples before continuing.
Cc1cccc(CN2CC3C[C@]3(NC(=O)c3cccc(F)c3)C2)n1 (some centres undefined) = -65.9%
O=C(NC[C@H]1C[C@@H]2CCN1C[C@@H]2CN1CCOCC1)Nc1ccccc1 = -40.4%
CN1CCC(N(Cc2ccco2)S(=O)(=O)c2cc(Br)ccc2Br)CC1 = 76.2%
CC(C)c1nccc(C2(c3ccccc3Cl)CCNCC2)n1 = 83.4%
Cc1ccc2c(CC(=O)N3C[C@@H](O)[C@H](N(C)C)C3)coc2c1 = 9.22%
Cc1ccc2[nH]c(-c3cn(C4CCNCC4)nn3)nc2c1C = 85.5%
FC1(F)CCNCC12CCN(c1ccccn1)C2 (centres undefined) = 58.6%
CCC(NCc1ccccc1Cl)c1ccccc1OCC(=O)NC (centres undefined) = 74.7%

Let us move to another entry and its INHIBITION.
query: Which INHIBITION is reported for this molecule? COc1ccccc1COCC(O)CN1CC(n2cccn2)C1 (centres undefined)
result: 78.9%
